Cited source: patent US20260139048A1

target: T1, His-tagged cynomolgus TIGIT (cynomolgus, UniProt A0A7N9I9V4 89-209); test: SPR (Biacore T200), antibody captured, His-tagged TIGIT analyte
T1 construct: SPR analyte; also called cynomolgus TIGIT protein; not shown: His tag
T1 sequence (A0A7N9I9V4 entry or part of it): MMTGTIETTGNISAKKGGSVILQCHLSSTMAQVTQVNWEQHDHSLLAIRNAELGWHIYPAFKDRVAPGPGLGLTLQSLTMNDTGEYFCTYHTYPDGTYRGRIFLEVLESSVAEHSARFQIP
Measured Endpoint: kon (M⁻¹ s⁻¹)
Only the number, expressed in M⁻¹ s⁻¹, is required.

{"Binder": "TIGIT-6 chimeric antibody (antibody, human IgG1, kappa, V domains shown, also called 6VH + 6VL) VH: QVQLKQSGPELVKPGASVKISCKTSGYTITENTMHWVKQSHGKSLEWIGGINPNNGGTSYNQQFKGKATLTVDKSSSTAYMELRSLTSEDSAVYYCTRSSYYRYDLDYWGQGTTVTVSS VL: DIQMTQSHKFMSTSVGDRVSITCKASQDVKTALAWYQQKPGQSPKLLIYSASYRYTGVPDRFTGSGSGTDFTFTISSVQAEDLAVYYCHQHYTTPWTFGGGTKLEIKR", "Meas Value": 90000}
{"Binder": "TIGIT-3 chimeric antibody (antibody, human IgG1, kappa, V domains shown, also called 3VH + 3VL) VH: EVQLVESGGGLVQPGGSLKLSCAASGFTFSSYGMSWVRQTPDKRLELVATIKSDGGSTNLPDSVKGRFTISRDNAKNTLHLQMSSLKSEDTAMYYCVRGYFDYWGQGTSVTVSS VL: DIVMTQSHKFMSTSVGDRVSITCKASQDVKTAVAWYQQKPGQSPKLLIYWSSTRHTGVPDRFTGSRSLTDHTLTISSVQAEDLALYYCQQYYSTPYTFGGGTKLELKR", "Meas Value": 110000}
{"Binder": "TIGIT-87 chimeric antibody (antibody, human IgG1, kappa, V domains shown, Full-length chimeric IgG1 kappa) VH: EVKLVESGPELVKPGASMKISCKASGYSFTGYTMNWVKQSHGKNLEWIGLINPYNGGTSYNQKFKGKATLTVDKSSSTAYMELLSLTSEDSAVYYCARYANRFENWFAYWGQGTLVTVSS VL: DIQMTQSPASLSASVGETVTITCRASENIYSYLAWYQQKQGKSPQLLVYNAKTLAEGVPSRFSGSGSGTQFSLKINSLQPEDFGSYYCQHHYGTPWTFGGGTKLEIKR", "Meas Value": "1.3e+06"}
{"Binder": "Hu1217-2-2 (anti-TIGIT positive control antibody) (antibody, V domains shown) VH: EVQLVESGGGLVQPGGSLRLSCAASGFTFSDYYMYWVRQAPGKGLEWVAYITKGGGSTYYPDSVKGRFTISRDNAKNTLYLQMNSLRAEDTAVYYCARQTNYDFTMDYWGQGTLVTVSS VL: EIVMTQSPATLSVSPGERATLSCKASQDVGTSVAWYQQKPGQAPRLLIYWASARHTGIPARFSGSGSGTEFTLTISSLQSEDFAVYYCQQYSSYPLTFGGGTKVEIK", "Meas Value": 160000}
{"Binder": "TIGIT-19 chimeric antibody (antibody, human IgG1, kappa, V domains shown, also called 19VH + 19VL) VH: QVQLQQPGPELVKPGTSVMLSCKASGYAFSRYSMYWVKQSHGKSLEWIAFIDPYNGGSTYNQRFRGKATLTVDKSSSTAYMHLNTLTSDDSAVYYCARGGDYGWYLGVWGAGTTVTVSS VL: DIQMTQSPASLSASVGETVTITCRPSENIYTYLSWYQQKRGKSPQLLVYNAKTLPENVPSRFSGSGSGTQFSLKIDSLQPEDFGNYYCQHHYGNPLTFGAGTKLELKR", "Meas Value": 730000}

Consider the additional binder presented here.
(Q) Recorded kon for TIGIT-18 chimeric antibody (antibody, human IgG1, kappa, V domains shown, Full-length chimeric IgG1 kappa) VH: QVQLQQPGAELVRPGASVKLSCKASGYSFTSYWMNWVKQRPGQGHEWIGMIHLSNSETRLNQNFLDKATLTVDKSSSTVYLQLSSPTSEDSAVYYCARERDYYGSSYFDYWGQGTTLTVSS VL: DIVMTQSPASLVVSLGQRATISCRTSQSVSTSSYSYMHWYQQKPGQPPKLLIKNASNLESGVPARFSASGSGTDFTLNIHPVEEEDAATYYCQHSWEIPRTFGGGTKLEIKR , please?
(A) 260000
